meta.source: patent US20150005277A1

Target: phosphorylated Btk at Tyr223 in Ramos cells (Homo sapiens, UniProt Q06187)
Construct: determine the endogenous levels of phosphorylated Btk at Tyr223; endogenous in cells; host or cells: Ramos cells (CRL-1596, ATCC)
Sequence (Q06187 whole entry): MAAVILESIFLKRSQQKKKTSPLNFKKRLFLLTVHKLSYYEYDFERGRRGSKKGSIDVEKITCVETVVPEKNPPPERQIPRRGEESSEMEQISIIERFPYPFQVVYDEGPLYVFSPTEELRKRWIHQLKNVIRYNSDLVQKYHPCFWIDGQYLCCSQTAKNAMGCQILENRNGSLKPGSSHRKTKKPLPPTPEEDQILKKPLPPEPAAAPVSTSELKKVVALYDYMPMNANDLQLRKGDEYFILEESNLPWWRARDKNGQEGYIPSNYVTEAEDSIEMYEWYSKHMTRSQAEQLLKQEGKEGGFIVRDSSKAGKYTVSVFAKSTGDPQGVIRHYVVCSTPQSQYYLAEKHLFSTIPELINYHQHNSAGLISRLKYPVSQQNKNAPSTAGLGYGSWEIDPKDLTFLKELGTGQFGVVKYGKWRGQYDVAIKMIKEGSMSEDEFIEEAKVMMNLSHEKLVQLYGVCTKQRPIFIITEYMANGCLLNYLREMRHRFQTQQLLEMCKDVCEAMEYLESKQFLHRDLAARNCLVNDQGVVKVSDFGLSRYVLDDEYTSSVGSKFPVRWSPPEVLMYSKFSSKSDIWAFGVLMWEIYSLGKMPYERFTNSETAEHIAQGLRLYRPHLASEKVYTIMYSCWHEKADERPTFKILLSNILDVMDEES
Experiment: Btk pY223 Cellular Assay (HTRF, Ramos cells)
Format: cell-based
Settings: 1 hour compound incubation, stimulated with pervanadate or Na3VO4, read-out: 1050 (nM) Btk pY223
Experimental Readout: IC50 (nM)

Compound: C#CC(=O)N1CCCC(n2nc(-c3ccc(Oc4ccccc4)cc3)c(C(N)=O)c2N)C1 (centres unmarked) [Compound I-13]
IC50 (nM): 7.5

I: NC(=O)c1c(-c2ccc(Oc3ccccc3)cc2)nn(C2CCCN(C(=O)CCl)C2)c1N (centres unmarked) [Compound I-6]
II: C=CC(=O)N1CCC[C@@H](n2nc(-c3ccc(Cl)cc3)c(C(N)=O)c2N)C1 [Compound I-14]
Field: lower IC50 | Options: I / II To answer, give the label that identifies your chosen option.
II
(II: 3.3 nM, I: 10.4 nM)

I: CN(C)C/C=C/C(=O)N1CCCC(n2nc(-c3ccc(Oc4ccccc4)cc3)c(C(N)=O)c2N)C1 (centres unmarked) [Compound I-4]
II: C=CC(=O)N1CCC[C@@H](n2nc(-c3ccc(C)c(OC)c3)c(C(N)=O)c2N)C1 [Compound I-15]
Larger number for IC50: I , or II ? Indicate which entry you chose by stating its label.
I
